Molecular target: human GCG receptor (human, UniProt P47871 26-477)
Sequence (P47871 26-477): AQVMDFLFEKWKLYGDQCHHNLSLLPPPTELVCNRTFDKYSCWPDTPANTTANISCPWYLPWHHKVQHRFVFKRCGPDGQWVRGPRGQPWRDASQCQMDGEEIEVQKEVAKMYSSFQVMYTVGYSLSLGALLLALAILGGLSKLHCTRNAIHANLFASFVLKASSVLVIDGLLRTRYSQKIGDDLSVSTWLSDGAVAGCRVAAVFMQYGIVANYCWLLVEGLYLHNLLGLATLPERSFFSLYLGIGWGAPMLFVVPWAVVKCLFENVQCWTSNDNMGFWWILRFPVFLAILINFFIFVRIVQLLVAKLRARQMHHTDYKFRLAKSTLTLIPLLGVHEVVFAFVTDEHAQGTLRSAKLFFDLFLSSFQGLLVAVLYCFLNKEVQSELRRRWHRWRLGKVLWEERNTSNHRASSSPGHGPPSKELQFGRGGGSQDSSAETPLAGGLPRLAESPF
Experiment: cell-based or functional assay
Threshold rule: cAMP Rel. A (%) against human GCG, human GCG R cells greater than or equal to 200% is yes (1); below that, no (0).

Evaluate YXQGTXTSDYSIXLDKKAQXAFIEYLLETHPSSGAPPXS (Aib at 2; αMeF at 6; αMeL at 13; Lys 17 side chain AEEAc-AEEAc-γGlu-CO(CH2)18COOH; Aib at 20; Ac3c at 38; C-terminal amide (NH2)) [Compound 2] : cAMP Rel. A (%) against human GCG, human GCG R cells at minimum 200%?
no (0)

Also YXQGTXTSDYSIXLDKKAQXAFIEYLLETGPSSGQPPXS (Aib at 2; αMeF(2F) at 6; αMeL at 13; Lys 17 side chain AEEAc-AEEAc-γGlu-CO(CH2)18COOH; Aib at 20; Ac3c at 38; C-terminal amide (NH2)) [Compound 34] ?
no (0)

Also YXQGTXTSDYSIXLDKKAQXAFIEYLLETGPSSGQPPPS (Aib at 2; αMeF at 6; αMeL at 13; Lys 17 side chain AEEAc-AEEAc-γGlu-CO(CH2)18COOH; Aib at 20; C-terminal amide (NH2)) [Compound 8] ?
no (0)

Also YXQGTXTSDYSIXLDKKAQXAFIEFLLEGGPSSGQPPPS (Aib at 2; αMeF(2F) at 6; αMeL at 13; Lys 17 side chain AEEAc-AEEAc-γGlu-CO(CH2)18COOH; Aib at 20; C-terminal amide (NH2)) [Compound 22] ?
yes (1)

Also YXQGTXTSDYSIXLDKKAQXAFIEFLLEXHPSSGAPPXS (Aib at 2; αMeF(2F) at 6; αMeL at 13; Lys 17 side chain AEEAc-AEEAc-γGlu-CO(CH2)18COOH; Aib at 20; Aib at 29; Ac3c at 38; C-terminal amide (NH2)) [Compound 31] ?
yes (1)
